FYI, the data here is from patent US20260092074A1.

- Assay system: human CYP11B2 (Homo sapiens, UniProt P19099)
- Measurement description: Inhibition of hCYP11B2 in transfected V79 cells
- Reported conditions: hamster V79 cells expressing human CYP11B2; substrate 11-deoxycorticosterone 200 nM
Quantity name: IC50 (nM)
State just the number; it will be interpreted in nM.

Example entries begin here.
N#Cc1ccc(-c2cncc3c2OCCN3C(=O)c2ccc(Cl)cc2)cc1
20.9
Cn1ncc2cc(-c3cncc4c3CCN4C(=O)c3ccccc3F)ccc21
23
N#Cc1ccc(-c2cncc3c2OCCN3S(=O)(=O)c2cccnc2)cc1
0.48
N#Cc1ccc(-c2cncc3c2SCCN3C(=O)c2cccc(C(F)(F)F)c2)cc1
12
N#Cc1ccc(-c2cncc3c2CCN3C(=O)c2cccnc2)cc1
1.7

Q: Report IC50, nothing else, for this compound: N#Cc1ccc(-c2cncc3c2OCCN3C(=O)C2CN(C(=O)c3ccc(F)cc3)C2)cc1
Result: 1.6

Q: Report IC50, nothing else, for this compound: Cn1c(=O)c(=O)[nH]c2cncc(-c3ccc(C#N)cc3)c21
Result: 372

Q: Report IC50, nothing else, for this compound: O=C1Cc2cc(-c3cncc4c3OCCN4C(=O)C3CN(Cc4cccc(F)c4)C3)ccc2N1
Result: 15.6

Q: Report IC50, nothing else, for this compound: O=C(c1ccccc1F)N1CCc2c(-c3cc4ccccc4o3)cncc21
Result: 152

Q: Report IC50, nothing else, for this compound: Cc1cccc(C(=O)N2CCc3c(-c4ccc(C#N)cc4)cncc32)c1
Result: 29

Q: Report IC50, nothing else, for this compound: N#Cc1ccc(-c2cncc3c2SCCN3S(=O)(=O)C2CN(C(=O)c3cccc(F)c3)C2)cc1
Result: 1.3

Q: Report IC50, nothing else, for this compound: N#Cc1ccc(-c2cncc3c2OCCN3S(=O)(=O)c2ccc(Cl)cc2)cc1
Result: 0.41

Q: Report IC50, nothing else, for this compound: O=C(c1ccccc1F)N1CCc2c(-c3ccc4[nH]ncc4c3)cncc21
Result: 97

* * *

- Assay system: human CYP11B2 (Homo sapiens, UniProt P19099)
- Sequence (P19099 25-503): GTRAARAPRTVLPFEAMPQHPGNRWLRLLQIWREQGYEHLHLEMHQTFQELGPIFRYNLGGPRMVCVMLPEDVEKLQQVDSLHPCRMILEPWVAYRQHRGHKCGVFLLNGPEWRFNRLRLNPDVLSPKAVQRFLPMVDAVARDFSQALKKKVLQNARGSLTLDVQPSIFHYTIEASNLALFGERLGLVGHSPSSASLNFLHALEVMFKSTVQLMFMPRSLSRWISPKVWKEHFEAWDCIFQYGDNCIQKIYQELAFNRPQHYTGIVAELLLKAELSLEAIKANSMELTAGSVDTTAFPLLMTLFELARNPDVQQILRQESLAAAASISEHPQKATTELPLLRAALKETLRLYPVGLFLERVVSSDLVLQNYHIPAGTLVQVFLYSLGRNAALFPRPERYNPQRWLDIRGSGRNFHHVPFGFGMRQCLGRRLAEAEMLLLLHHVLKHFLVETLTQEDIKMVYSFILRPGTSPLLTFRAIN
- Measurement description: Inhibition of hCYP11B2 in transfected V79 cells
- Reported conditions: hamster V79 cells expressing human CYP11B2; substrate 11-deoxycorticosterone 200 nM
Collected log10(IC50) values appear next to each entry.
Please keep in mind that the values are log10 of IC50 expressed in nM.

Example entries begin here.
N#Cc1ccc(-c2cncc3c2CCN3C(=O)c2cccc(Cl)c2)cc1
1.36
N#Cc1ccc(C(=O)N2CC(S(=O)(=O)N3CCOc4c(-c5ccc(C#N)cc5)cncc43)C2)cc1
1.37

Q: Look up and report measured log10(IC50) (human CYP11B2 (Homo sapiens, UniProt P19099)) for the following compound: N#Cc1ccc(-c2cncc3c2OCCN3S(=O)(=O)c2ccccc2)cc1
Result: -0.80

Q: Look up and report measured log10(IC50) (human CYP11B2 (Homo sapiens, UniProt P19099)) for the following compound: N#Cc1ccc(-c2cncc3c2OCCN3C(=O)CCc2cccc(C(F)(F)F)c2)cc1
Result: 0.84

Q: Look up and report measured log10(IC50) (human CYP11B2 (Homo sapiens, UniProt P19099)) for the following compound: N#Cc1ccc(-c2cncc3c2CCN3C(=O)c2ccco2)cc1
Result: 1.43

Q: Look up and report measured log10(IC50) (human CYP11B2 (Homo sapiens, UniProt P19099)) for the following compound: O=C(c1ccccc1F)N1CCc2c(-c3ccc4[nH]ccc4c3)cncc21
Result: 1.48

Q: Look up and report measured log10(IC50) (human CYP11B2 (Homo sapiens, UniProt P19099)) for the following compound: N#Cc1ccc(-c2cncc3c2CCN3S(=O)(=O)c2cccc3cccnc23)cc1
Result: 0.00

Q: Look up and report measured log10(IC50) (human CYP11B2 (Homo sapiens, UniProt P19099)) for the following compound: N#Cc1ccc(CN2CC(S(=O)(=O)N3CCSc4c(-c5ccc(C#N)cc5)cncc43)C2)cc1
Result: -0.22

Q: Look up and report measured log10(IC50) (human CYP11B2 (Homo sapiens, UniProt P19099)) for the following compound: N#Cc1ccc(-c2cncc3c2SCCN3C(=O)c2cccc(C#N)c2)cc1
Result: 1.90

* * *

Collected log10(IC50) values appear next to each entry.
- Assay system: human CYP11B1 (Homo sapiens)
- Construct: expressed in transfected cells
- Sequence (P15538 25-503): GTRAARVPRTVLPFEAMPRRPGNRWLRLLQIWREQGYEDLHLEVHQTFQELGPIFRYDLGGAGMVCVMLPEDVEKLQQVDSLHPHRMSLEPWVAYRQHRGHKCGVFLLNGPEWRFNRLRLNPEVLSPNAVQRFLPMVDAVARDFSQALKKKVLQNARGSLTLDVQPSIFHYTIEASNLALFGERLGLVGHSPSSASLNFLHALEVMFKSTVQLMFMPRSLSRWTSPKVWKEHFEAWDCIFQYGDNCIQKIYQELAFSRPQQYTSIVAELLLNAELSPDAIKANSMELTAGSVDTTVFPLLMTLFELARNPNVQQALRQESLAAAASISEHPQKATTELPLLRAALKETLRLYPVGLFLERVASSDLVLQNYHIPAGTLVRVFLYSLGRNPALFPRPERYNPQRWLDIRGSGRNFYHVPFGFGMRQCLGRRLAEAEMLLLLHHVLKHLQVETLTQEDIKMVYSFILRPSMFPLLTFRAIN
- Measurement description: Inhibition of hCYP11B1 in transfected V79 cells
- Type: cell-based
- Reported conditions: hamster V79 cells expressing human CYP11B1; substrate 11-deoxycortisol 200 nM
Please keep in mind that the values are log10 of IC50 expressed in µM.

Example entries begin here.
CN1CCNc2cncc(-c3ccc(C#N)cc3)c21
-0.40
COc1ccc(C(=O)N2CC(S(=O)(=O)N3CCSc4c(-c5ccc(C#N)cc5)cncc43)C2)cc1
-1.64
N#Cc1ccc(-c2cncc3c2OCCN3C(=O)C2CN(S(=O)(=O)c3cccc(C#N)c3)C2)cc1 [O68]
-1.28
N#Cc1ccc(-c2cncc3c2OCCN3C(=O)CCl)cc1
0.10
N#Cc1ccc(-c2cncc3c2CCN3C(=O)c2ccccc2[N+](=O)[O-])cc1
-0.34
N#Cc1ccc(-c2cncc3c2CCN3S(=O)(=O)c2ccc([N+](=O)[O-])cc2)cc1
-3.46
N#Cc1ccc(-c2cncc3c2OCCN3C(=O)C2CN(c3ccc(C#N)cc3)C2)cc1
-1.26
N#Cc1ccc(-c2cncc3c2OCCN3C(=O)Cc2ccc(Cl)cc2)cc1
-0.25

Query compound follows.
Q: Report log10(IC50), nothing else, for this compound: O=C(c1ccc(F)cc1)n1ccc2c(-c3cc4ccccc4o3)cncc21
Result: -0.57

* * *

- Assay system: UniProtKB P19099
- Sequence (P19099 25-503): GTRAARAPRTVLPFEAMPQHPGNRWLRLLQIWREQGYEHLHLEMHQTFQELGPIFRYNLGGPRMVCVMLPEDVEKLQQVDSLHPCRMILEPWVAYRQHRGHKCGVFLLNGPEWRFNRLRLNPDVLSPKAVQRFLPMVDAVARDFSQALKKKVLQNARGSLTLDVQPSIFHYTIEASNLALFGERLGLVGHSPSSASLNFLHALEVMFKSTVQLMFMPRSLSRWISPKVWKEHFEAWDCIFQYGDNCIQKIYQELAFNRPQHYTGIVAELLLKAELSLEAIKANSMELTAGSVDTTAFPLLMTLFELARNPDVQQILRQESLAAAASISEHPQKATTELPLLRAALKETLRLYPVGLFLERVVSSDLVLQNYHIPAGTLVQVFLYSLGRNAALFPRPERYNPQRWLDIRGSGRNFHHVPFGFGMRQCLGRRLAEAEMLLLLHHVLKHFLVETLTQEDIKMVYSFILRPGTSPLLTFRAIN
- Measurement description: Inhibition of hCYP11B2 in transfected V79 cells
- Reported conditions: hamster V79 cells expressing human CYP11B2; substrate 11-deoxycorticosterone 200 nM
Quantity name: IC50 (nM)
State just the number; it will be interpreted in nM.

Example entries begin here.
O=C(C1CN(Cc2cccc(F)c2)C1)N1CCOc2c(N3CCn4cnnc4C3)cncc21 [O135]
66
CN1CCNc2cncc(-c3ccc(C#N)cc3)c21 [N3]
311
COc1cccc(C(=O)N2CCc3c(N4CCN(C#N)CC4)cncc32)c1 [C83]
6

Q: Look up and report measured IC50 (UniProtKB P19099) for the following compound: N#Cc1ccc(-c2cncc3c2SCC(=O)N3)cc1 [S99]
Result: 6.9

Q: Look up and report measured IC50 (UniProtKB P19099) for the following compound: N#Cc1ccc(-c2cncc3c2OCCN3S(=O)(=O)C2CN(Cc3cccc(F)c3)C2)cc1 [O122]
Result: 0.8

* * *

- Assay system: human CYP11B2 (Homo sapiens, UniProt P19099)
- Measurement description: Inhibition of hCYP11B2 in transfected V79 cells
- Reported conditions: hamster V79 cells expressing human CYP11B2; substrate 11-deoxycorticosterone 200 nM
Friendly reminder: IC50 below 10 nM is T, at or above is F.

Clc1ccc2oc(-c3cncc4c3OCCN4)cc2c1
T
Cc1ccc(S(=O)(=O)N2CCSc3c(-c4ccc(C#N)cc4)cncc32)cc1
T
N#Cc1ccc(-c2cncc3c2OCCN3C(=O)N2CC3(CN(Cc4cccc(F)c4)C3)C2)cc1
F
N#Cc1ccc(-c2cncc3c2SCCN3S(=O)(=O)c2cccc(F)c2)cc1
T
O=C(c1ccccc1F)N1CCc2c(-c3ccc4ncsc4c3)cncc21
F
N#Cc1ccc(-c2cncc3c2SCC(=O)N3C(=O)c2ccc(Cl)cc2)cc1
F

Q: Decide: IC50 of N#Cc1ccc(-c2cncc3c2ccn3S(=O)(=O)c2cccc(C(F)(F)F)c2)cc1 strictly below 10 nM?
Result: T

Q: Decide: IC50 of N#Cc1ccc(-c2cncc3c2OCCN3C(=O)CCc2cccc(Cl)c2)cc1 strictly below 10 nM?
Result: T

Q: Decide: IC50 of N#Cc1ccc(-c2cncc3c2CCN3C(=O)c2cccc([N+](=O)[O-])c2)cc1 strictly below 10 nM?
Result: T
